Biological target: LC3A (residues 1-121 of human LC3A) (human, UniProt Q9H492 1-121)
Test: ITC
Conditions: both partners purified
pKd: −log10 of the molar value.
parameterMeasured: pKd

> print(dat)
                                     binder  endpointvalue
1  RLRFSDFYNVGEFPYRVGLG [NSs2 (residues 53-72 of RVFV NSs)]         < 4.00
2  GRNNWIPVIPPIPDVEMESEEE [NSs3 (residues 234-255 of RVFV NSs)]         < 4.00
3  DYFPVISVDLQSGRR [NSs1 (residues 2-16 of RVFV NSs)]         < 4.00
